# systemUnderTest: 5-hydroxytryptamine receptor 2A (Homo sapiens, UniProt P28223)
# Sequence (P28223 whole entry): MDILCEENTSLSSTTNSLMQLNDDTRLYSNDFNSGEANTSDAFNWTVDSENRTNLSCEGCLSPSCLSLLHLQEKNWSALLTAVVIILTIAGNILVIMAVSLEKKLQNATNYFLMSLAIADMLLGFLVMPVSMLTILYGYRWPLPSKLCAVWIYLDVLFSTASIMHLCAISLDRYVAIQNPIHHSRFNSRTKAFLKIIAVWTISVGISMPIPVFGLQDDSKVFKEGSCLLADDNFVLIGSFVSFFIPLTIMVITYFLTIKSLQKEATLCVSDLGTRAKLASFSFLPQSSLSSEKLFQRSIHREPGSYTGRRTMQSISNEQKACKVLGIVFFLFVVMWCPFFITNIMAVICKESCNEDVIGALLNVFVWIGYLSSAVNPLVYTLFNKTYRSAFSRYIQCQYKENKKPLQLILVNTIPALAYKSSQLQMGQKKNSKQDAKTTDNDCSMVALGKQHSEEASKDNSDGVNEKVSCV
quantityName: Ki

In: What Ki value was documented for this compound, CC1(c2cccc(O)c2)C(=O)Nc2cc(Cl)cc(Cl)c2C1=O (stereo unspecified) ?
Out: > 10 µM

----------
D(3) dopamine receptor (Homo sapiens, UniProt P35462): reported Ki for various compounds.
Sequence (P35462 whole entry): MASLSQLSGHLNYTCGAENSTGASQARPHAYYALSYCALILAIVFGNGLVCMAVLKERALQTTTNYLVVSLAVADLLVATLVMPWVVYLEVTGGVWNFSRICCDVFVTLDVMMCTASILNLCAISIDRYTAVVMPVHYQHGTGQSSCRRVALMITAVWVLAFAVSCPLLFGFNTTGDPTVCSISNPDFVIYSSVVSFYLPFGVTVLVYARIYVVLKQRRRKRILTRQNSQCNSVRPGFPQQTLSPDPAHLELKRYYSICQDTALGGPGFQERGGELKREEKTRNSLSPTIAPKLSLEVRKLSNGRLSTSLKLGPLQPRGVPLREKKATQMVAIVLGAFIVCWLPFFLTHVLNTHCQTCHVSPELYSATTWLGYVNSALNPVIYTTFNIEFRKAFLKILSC

compound	result
CC1(c2cccc(OCc3ccccc3)c2)C(=O)Nc2cc(Cl)cc(Cl)c2C1=O (configuration not stated)	> 10 µM

API: the following record is the query input.
In: Field request: Ki | item: CC1(c2ccccc2)C(=O)Nc2cc(Cl)cc(Cl)c2C1=O (racemic)
Out: > 10 µM

----------
Recorded Ki, one value per entry.
# systemUnderTest: UniProt:P14416
# Sequence (P14416 whole entry): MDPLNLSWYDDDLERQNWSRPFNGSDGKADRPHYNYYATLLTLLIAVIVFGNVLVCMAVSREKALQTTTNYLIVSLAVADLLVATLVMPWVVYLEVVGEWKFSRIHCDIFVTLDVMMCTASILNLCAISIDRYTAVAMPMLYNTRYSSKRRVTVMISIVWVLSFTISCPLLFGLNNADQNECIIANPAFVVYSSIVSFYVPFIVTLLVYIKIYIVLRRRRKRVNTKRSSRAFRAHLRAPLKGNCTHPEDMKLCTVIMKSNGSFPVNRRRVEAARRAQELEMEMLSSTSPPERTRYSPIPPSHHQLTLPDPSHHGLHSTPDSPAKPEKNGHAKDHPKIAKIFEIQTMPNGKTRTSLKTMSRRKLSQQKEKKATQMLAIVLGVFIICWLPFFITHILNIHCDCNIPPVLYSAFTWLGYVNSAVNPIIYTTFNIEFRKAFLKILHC
# assayExplanation: Displacement of [3H]spiperone from human cloned dopamine D2 receptor

compound	quantityName	result
CC1(c2ccccc2)C(=O)Nc2cc(Cl)cc(Cl)c2C1=O (racemic)	Ki	> 10 µM
CC1(c2cccc(OCc3ccccc3)c2)C(=O)Nc2cc(Cl)cc(Cl)c2C1=O (stereo not given)	Ki	> 10 µM
CC1(c2cccc(O)c2)C(=O)Nc2cc(Cl)cc(Cl)c2C1=O (stereo not given)	Ki	> 10 µM
CC1(c2ccc(O)cc2)C(=O)Nc2cc(Cl)cc(Cl)c2C1=O (stereo not given)	Ki	> 10 µM

In: May I ask what Ki has been recorded for "COc1ccc(NS(=O)(=O)c2sc3ccc(Cl)cc3c2C)cc1N1CCNCC1" ?
Out: 0.46 µM

----------
# systemUnderTest: 5-hydroxytryptamine receptor 2C (Homo sapiens, UniProt P28335)
# Sequence (P28335 whole entry): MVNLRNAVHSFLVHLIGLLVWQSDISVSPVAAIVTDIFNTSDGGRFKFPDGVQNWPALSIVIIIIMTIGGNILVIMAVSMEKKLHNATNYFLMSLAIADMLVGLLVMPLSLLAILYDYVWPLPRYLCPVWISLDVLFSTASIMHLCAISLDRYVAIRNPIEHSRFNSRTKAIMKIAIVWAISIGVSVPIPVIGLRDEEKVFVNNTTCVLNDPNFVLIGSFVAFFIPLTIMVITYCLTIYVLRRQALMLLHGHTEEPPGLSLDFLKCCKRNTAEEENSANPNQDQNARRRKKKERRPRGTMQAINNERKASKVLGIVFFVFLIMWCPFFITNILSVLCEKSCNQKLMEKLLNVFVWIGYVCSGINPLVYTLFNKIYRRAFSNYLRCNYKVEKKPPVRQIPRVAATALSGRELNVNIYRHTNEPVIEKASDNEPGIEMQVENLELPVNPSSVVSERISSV
# assayExplanation: Displacement of [3H]mesulergine from human cloned 5HT2C receptor
Recorded Ki values for a group of compounds are listed next.

compound	quantityName	result
CC1(c2cccc(OCc3ccccc3)c2)C(=O)Nc2cc(Cl)cc(Cl)c2C1=O (configuration not stated)	Ki	> 10 µM

Now let's try a different one.
In: Item under review: CC1(c2ccc(O)cc2)C(=O)Nc2cc(Cl)cc(Cl)c2C1=O (configuration not stated) . Reported Ki?
Out: > 10 µM

----------
Reported Ki for target or system UniProtKB P08908, by entry.
Sequence (P08908 whole entry): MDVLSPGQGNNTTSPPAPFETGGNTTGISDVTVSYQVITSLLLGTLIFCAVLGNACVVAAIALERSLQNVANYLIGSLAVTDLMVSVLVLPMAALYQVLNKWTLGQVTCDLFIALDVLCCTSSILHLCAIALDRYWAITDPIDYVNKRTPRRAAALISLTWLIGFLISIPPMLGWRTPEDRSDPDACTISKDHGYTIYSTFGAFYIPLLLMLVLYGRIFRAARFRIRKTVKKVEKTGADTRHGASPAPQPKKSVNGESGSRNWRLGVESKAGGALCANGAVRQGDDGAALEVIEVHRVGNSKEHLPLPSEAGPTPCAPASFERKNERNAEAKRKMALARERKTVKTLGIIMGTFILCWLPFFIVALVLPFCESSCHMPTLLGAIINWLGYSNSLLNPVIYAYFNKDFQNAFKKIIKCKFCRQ

compound	result
CC1(c2cccc(O)c2)C(=O)Nc2cc(Cl)cc(Cl)c2C1=O (centres undefined)	> 10 µM
CC1(c2ccccc2)C(=O)Nc2cc(Cl)cc(Cl)c2C1=O (racemic)	> 10 µM
CC1(c2cccc(OCc3ccccc3)c2)C(=O)Nc2cc(Cl)cc(Cl)c2C1=O (centres undefined)	0.17 µM

Next up:
In: // Ki lookup, key: CC1(c2ccc(O)cc2)C(=O)Nc2cc(Cl)cc(Cl)c2C1=O (centres undefined)
Out: > 10 µM

----------
# systemUnderTest: D(1A) dopamine receptor (Homo sapiens)
# Sequence (P21728 whole entry): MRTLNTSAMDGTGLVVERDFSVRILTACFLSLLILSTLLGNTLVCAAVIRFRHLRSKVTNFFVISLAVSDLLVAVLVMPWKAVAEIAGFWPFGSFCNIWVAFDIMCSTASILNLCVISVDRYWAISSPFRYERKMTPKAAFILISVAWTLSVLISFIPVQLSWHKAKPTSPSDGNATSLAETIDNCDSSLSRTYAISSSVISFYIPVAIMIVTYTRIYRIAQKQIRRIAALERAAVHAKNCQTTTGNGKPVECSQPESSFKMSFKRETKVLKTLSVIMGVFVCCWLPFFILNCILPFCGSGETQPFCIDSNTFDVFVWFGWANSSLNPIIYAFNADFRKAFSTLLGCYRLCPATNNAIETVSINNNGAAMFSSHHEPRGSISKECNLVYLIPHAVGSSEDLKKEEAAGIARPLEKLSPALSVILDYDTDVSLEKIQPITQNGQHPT
# assayExplanation: Displacement of [3H]SCH-23390 from human cloned dopamine D1 receptor
// reported Ki for each item listed
Only the number, expressed in nM, is required.

compound	Ki (nM)
COc1ccc(NS(=O)(=O)c2sc3ccc(Cl)cc3c2C)cc1N1CCNCC1	120

In: Could you tell me which Ki is on file for CC1(c2cccc(OCc3ccccc3)c2)C(=O)Nc2cc(Cl)cc(Cl)c2C1=O (stereo not given) ?
Out: 120

In: Now try CC1(c2cccc(O)c2)C(=O)Nc2cc(Cl)cc(Cl)c2C1=O (stereo not given) .
Out: 1810
